Tested target: IDO1 (Homo sapiens (Human))
Assay name: IDO1 Cellular Assay in Frozen HEK293 Cells Transiently Transfected with Human IDO1
Type: cell-based
Assay conditions: HEK293 cells transiently transfected with human IDO1; read-out: IDO1 HEK293 Cell Assay, IC50
What pIC50 was measured for each of the following?
Give bare numbers, as −log10 of the molar value.

| Compound | Measured metric | Readout number |
| --- | --- | --- |
| OCC(O)CSc1nonc1/C(=N/O)Nc1ccc(F)c(Br)c1 (single isomer, unassigned) [Example 63] | pIC50 | 7.27 |

Could you report pIC50 for every entry in the following list?
1. N#Cc1cc(N/C(=N\O)c2nonc2SCCNC(=O)[C@H]2CC2(F)F)ccc1F [Example 187]
2. O=C(NCCSc1nonc1/C(=N/O)Nc1ccc(F)c(Br)c1)C(F)(F)F [Example 79]
3. OC[C@H](O)CSc1nonc1/C(=N/O)Nc1ccc(F)c(C(F)F)c1 [Example 167]
4. CC(=O)NCCSc1nonc1/C(=N/O)Nc1ccc(F)cc1 [Example 62]
5. N#CC12CC(CSc3nonc3/C(=N/O)Nc3ccc(F)c(Br)c3)(C1)C2 [Example 80]
6. CC(=O)NCCSc1nonc1/C(=N/O)Nc1cccc(Br)c1 [Example 59]

6.85
7.56
6.96
5.75
7.11
7.69

Give recorded pIC50. CCOC(=O)CNP(=O)(CCCSc1nonc1/C(=N/O)Nc1ccc(F)c(Br)c1)NCC(=O)OCC [Example 108] 6.08

----------
Tested target: IDO1 (Homo sapiens (Human))
Assay name: IDO1 Enzyme Assay
Assay conditions: IDO1 Enzyme Assay, IC50, nM, HIS-tagged recombinant IDO1, 40 nM
Measured metric: IC50 (nM)
One number for each entry, in nM.

# count of solved cases: 3
| Compound | IC50 [nM] |
| --- | --- |
| O=C(CSc1nonc1/C(=N/O)Nc1ccc(F)c(Br)c1)NCC(O)CN1CCOCC1 (single isomer, unassigned) [Example 206] | 39.3 |
| O=C(NCCSc1nonc1C(=NO)Nc1ccc(F)c(Br)c1)NCc1ccco1 | 34.1 |
| OCC(O)CSc1nonc1/C(=N/O)Nc1ccc(F)c(Br)c1 (single isomer, unassigned) [Example 63] | 46.1 |

Query compound follows.
Give the reported value of IC50 for this record: "O=C(CSc1nonc1C(=NO)Nc1ccc(F)c(Br)c1)N1CCC[C@H]1CO" 120

----------
For each record, write down the corresponding log10 IC50.
Tested target: IDO1 (Homo sapiens (Human), UniProt P14902)
Sequence (P14902 whole entry): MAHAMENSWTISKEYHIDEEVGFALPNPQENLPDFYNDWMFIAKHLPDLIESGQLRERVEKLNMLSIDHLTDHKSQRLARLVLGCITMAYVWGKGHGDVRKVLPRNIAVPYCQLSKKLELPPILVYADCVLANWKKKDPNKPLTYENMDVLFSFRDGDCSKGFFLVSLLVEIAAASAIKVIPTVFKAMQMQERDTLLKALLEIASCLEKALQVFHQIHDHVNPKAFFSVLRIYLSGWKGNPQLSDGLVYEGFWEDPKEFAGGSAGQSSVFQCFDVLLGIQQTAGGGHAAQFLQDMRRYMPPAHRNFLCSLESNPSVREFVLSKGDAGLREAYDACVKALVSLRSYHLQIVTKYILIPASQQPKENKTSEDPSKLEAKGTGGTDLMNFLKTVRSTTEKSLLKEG
Assay name: IDO1 Enzyme Assay
Assay conditions: read-out: IDO1 Enzyme Assay, IC50; HIS-tagged recombinant IDO1, 40 nM
Please note: log10 values; quantity IC50; unit nM.

Below, each entry is followed by its recorded log10 IC50 result.
| Molecule | Tested target | Readout number |
| --- | --- | --- |
| NS(=O)(=O)N[C@H](CO)CSc1nonc1/C(=N/O)Nc1ccc(F)c(Br)c1 [Example 194] | IDO1 (Homo sapiens (Human), UniProt P14902) | 1.71 |
| O=C(CSc1nonc1/C(=N/O)Nc1ccc(F)c(Br)c1)NC[C@@H](O)CO [Example 42] | IDO1 (Homo sapiens (Human), UniProt P14902) | 1.68 |
| O=C(CSc1nonc1/C(=N/O)Nc1ccc(F)c(Br)c1)N1CCOCC1 [Example 193] | IDO1 (Homo sapiens (Human), UniProt P14902) | 1.87 |
| CN1C(=O)NC[C@@H]1CSc1nonc1/C(=N/O)Nc1ccc(F)c(C#N)c1 [Example 150] | IDO1 (Homo sapiens (Human), UniProt P14902) | 2.24 |

Kindly give each listed record's log10 IC50.
1. O/N=C(\Nc1ccc(F)c(Br)c1)c1nonc1SCc1nnc[nH]1 [Example 191]
2. N#Cc1cc(N/C(=N\O)c2nonc2SC[C@@H](O)CO)ccc1F [Example 140]
3. N#Cc1cc(N/C(=N\O)c2nonc2SCCNC(=O)[C@@H]2CC2(F)F)ccc1F [Example 188]
4. NS(=O)(=O)NCCSc1nsnc1/C(=N/O)Nc1ccc(F)c(Br)c1 [Example 47]
5. Nc1c(NCCSc2nonc2/C(=N/O)Nc2ccc(F)c(Br)c2)c(=O)c1=O [Example 73]
6. CN1C(=O)NC[C@H]1CSc1nonc1/C(=N/O)Nc1ccc(F)c(C#N)c1 [Example 146]
7. CS(=O)(=O)NCCSc1nonc1/C(=N/O)Nc1ccc(F)c(C(F)F)c1 [Example 183]

1. 1.64
2. 1.99
3. 1.94
4. 2.64
5. 1.43
6. 2.19
7. 1.72
